These measurements were taken from patent US20220396632A1.

# Tested Target: T1, Biotin PSGL-1(42-62) peptide, unmodified (human, C-terminal Lys-biotin)
# T1 construct: Residues 42-62 followed by GGGK-biotin; also called WT; wild-type
# T1 peptide: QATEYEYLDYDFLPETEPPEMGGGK
# Assay Name: ELISA, immobilized biotin peptide
pEC50: −log10 of the molar value.
Entries and their pEC50

Here is how some binders turned out for pEC50.
# Binder, Obs Value
records = [
    ("02G01 (antibody, IgG4, V domains shown) VH: EVQLVQSGAEVKKPGASVKVSCKASGYTFTSYGISWVRQAPGQGLEWMGWISAYNGNTNYAQKLQGRVTMTTDTSTSTAYMELRSLRSDDTAVYYCARVTRLPGGGYAFDIWGQGTMVTVSL VL: QSVLTQPPSASGTPGQRITISCSGSTSNIGNKHVYWYQQFPGAAPKLLIHNTNKRPSGVPDRFSGSKSGTSASLAISGLQSDDEADYYCAAWDGSLSAWVFGGGTKLTVL", 8.42),
    ("20I15 (antibody, V domains shown, From mouse immunisation; only variable domains given; also called 20115) VH: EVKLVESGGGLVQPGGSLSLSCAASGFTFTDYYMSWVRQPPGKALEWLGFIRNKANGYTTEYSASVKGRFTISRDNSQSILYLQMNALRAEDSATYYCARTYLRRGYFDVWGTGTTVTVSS VL: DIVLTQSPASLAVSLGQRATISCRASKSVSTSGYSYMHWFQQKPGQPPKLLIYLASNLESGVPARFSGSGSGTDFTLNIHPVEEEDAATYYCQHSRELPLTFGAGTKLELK", "~6.52"),
    ("03B01 (antibody, IgG4, V domains shown) VH: QMQLVQSGAEVKKPGASVKVSCRASGYRFSTYAISWVRQAPGQGLEWIGWISTHHGNTKYAQKFQDRVTMTADASTSIAYMELRSLRSDDTAVYYCAAAIGNYWGQGTLVTVSS VL: EIVLTQSPAILSVSPGERASLSCRASQSVSSKLAWYQQKPGQAPRLLIYGASTRATGIPPRFSGSGSGTDFTLTISSLEPEDFAVYYCQQRSNWPLTFGGGTKVEIK", "~6.30"),
    ("05A11 (antibody, IgG4, V domains shown) VH: EVKLLESGGGVVQPGRSLRLSCAASGFSFSAYGMHWVRQAPGKGLEWVSSISGSGDGTYYADSVKGRFTISRDNSKNTLYLQMNSLRAEDAAVYYCAKSVKGRGYFFDYWGQGTLVTVSS VL: DIVLTQSPSSLSASVGDRVTITCRASQSISSYLNWYQQKPGKAPKLLIYAASSLQSGVPSRFSGSGSGTDFTLSISNLQPEDFATYYCQQAYKFPRSFGGGTKVEFK", "~6.30"),
]

Please supply the value of reported pEC50 for the item 09D04 (antibody, IgG4, V domains shown) VH: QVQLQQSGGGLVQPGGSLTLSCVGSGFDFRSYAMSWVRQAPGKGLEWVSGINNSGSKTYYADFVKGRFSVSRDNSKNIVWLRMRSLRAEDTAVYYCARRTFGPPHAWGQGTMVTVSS VL: DVVMTQSPLSLPVTPGEPASISCRSSQSLLHSNGYTYLEWYLHKPGQSPQLLIYLGSNRASGVPDRFSGSGSGTDFTLKISRVEAEDVGVYYCMHSLHIPFTFGPGTKVDIK ~10.30
